B1: TNXB (parent)
chain: LLQRELMVPGTRHSAVLRDLRSGT

- Variants of: B1
- Experiment: protein stability index of a GFP-peptide fusion (GPS, HEK-293T) (PSI 1-6); higher = more stable;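 note: lentivirally expressed fusions sorted by FACS into six bins by GFP to DsRed ratio, PSI derived from sequencing read proportions per bin multiplied by bin number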
- Applied conditions: c terminus: a fixed tail appended
Measured property: protein stability index
Answer with a bare number; do not write a unit.

Which protein stability index is reported for this variant? LLQRELMVPGTRHSAVLRDLRSGY [T24Y] 2.64

Request: LLQRELMVPGTRHSAFLRDLRSGT [V16F] 1.71

Another variant: LLQRELMVPGTDHSAVLRDLRSGT [R12D] 3.01

Item: LLQRELMVPTTRHSAVLRDLRSGT [G10T] 2.58

Likewise for LLQRELMVPGTRFSAVLRDLRSGT [H13F] ? 1.59

Also LLQRWLMVPGTRHSAVLRDLRSGT [E5W] , if possible. 2.84

Query LLQRELMVPGTRHSAVLEDLRSGT [R18E] next 3.33

Same read-out for LLQRELMVPGTKHSAVLRDLRSGT [R12K] ? 2.28

# repeat for LLQRILMVPGTRHSAVLRDLRSGT [E5I] 2.06

Then LLQRELMVPGTRHSAVLRELRSGT [D19E] ? 2.78

Same lookup for LLQRELMVPGDRHSAVLRDLRSGT [T11D] , please. 2.81

Consider next the variant LLQRELMVPGTRCSAVLRDLRSGT [H13C] in the same way. 2.1

Next variant up: LLQRELMVPGTRHSAVLRDPRSGT [L20P] 2.53

Lookup LLQRELMVPGTRHSAVLRDLRSGA [T24A] 2.7

Another: LLQRELMVPGTRHSAVARDLRSGT [L17A] 2.55

Another variant to look at: LLQRELMVPGTRHSAVLRDLRDGT [S22D] 2.96

Quick one: GLQRELMVPGTRHSAVLRDLRSGT [L1G] 2.89

Please give the result for LLQRELMVPGTRHSPVLRDLRSGT [A15P] too. 2.35

Same read-out for LLQRELMVPGTRHSAVLRDERSGT [L20E] ? 3.37

What do you get for LLQRELMVPGTRHPAVLRDLRSGT [S14P] ? 2.32

What do you have for LLQRELMVPGTRHSAVLRVLRSGT [D19V] ? 1.71

Note, next up: LLQRELMCPGTRHSAVLRDLRSGT [V8C] 2.12
